For each entry below, report its % Hoechst-high responders value.
# test protocol: tubulin staining increase by stabilizing compounds – imaging, high-content imaging, primary screen (AID 2205)
# measurement setup: HeLa tubulin immunostaining HCS, 24 h, at 10 µM; measured here: nuclear condensation Hoechst responders, stronger effect = higher value, share of cells brighter than vehicle mean+2SD
In all, about 200,000 compounds went through this assay and about 1,600 (0.8%) were called active. The list comes from a sample in which actives are over-represented; it also holds close analogues and randomly drawn compounds.
Put your answer as a value accompanied by its unit after it.

What does the record list as % Hoechst-high responders for C=CCOC(=O)C1=C(C)NC(SCC(=O)OCC)=C(C#N)C1c1ccc(C)cc1 (centres undefined) ? 1.55%

What does the record list as % Hoechst-high responders for "COc1ccc(-c2[nH]ncc2CN(C)Cc2c(C)n[nH]c2C)c(OC)c1" ? 1.45%

What does the record list as % Hoechst-high responders for CCOC(=O)CSC1=C(C#N)C(c2ccco2)C(C(=O)OCc2ccccc2)=C(C)N1 (centres undefined) ? 31.7%

What does the record list as % Hoechst-high responders for CCOC(=O)CSC1=C(C#N)C(c2sccc2C)CC(=O)N1 (centres undefined) ? 46%
